Values were extracted from PubChem BioAssay.

test: endothelial E-selectin expression blockers – imaging, HUVEC, immunofluorescence, MLSMR starter and 10KST1 sets, primary screen (AID 487); details: HUVEC TNFalpha-induced E-selectin immunofluorescence imaging, at 2 µM; measured here: cell number, toxicity;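 also: 100% = median nuclei count of all wells on the same plate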
property.name: nuclei count (%)
Answers are plain numbers, in %.

Reference set, count: 2
- molecule: "CCCC(=O)Nc1ccc(NC(=O)c2cccs2)cn1"
  result.value: 140
- molecule: "Cc1cc(NC(=O)CS(=O)(=O)c2cn(Cc3ccccc3Cl)c3ccccc23)no1"
  result.value: 83.3

Please give nuclei count, item by item, for the list that follows.
1. CCn1c(CNc2ccc(OC)cc2)nnc1SCC(=O)c1ccc(OC)cc1
2. CC(C)Cc1n[nH]c(=O)[nH]1
3. O=C(CN1C(=O)c2cccc3cccc1c23)N1CCN(c2ccccc2)CC1
4. Cc1cccc(NC(=O)c2ccc(S(=O)(=O)N(C)C)cc2)n1

1: 107; 2: 120; 3: 101; 4: 94.4

Give nuclei count for each of the items listed below.
1. C=CCn1c(C)cc(C(=O)CSc2nc3ccccc3c(=O)[nH]2)c1C
2. CCn1nnnc1SCC(=O)Nc1nnc(C(C)C)s1
3. O=C(NC(=O)c1ccc(Cl)cc1)Nc1cc(N2CCCCC2)ncn1
4. CC(=O)Nc1ccc(S(=O)(=O)n2nc(C)cc2C)cc1

104
116
89.5
105

Give measured nuclei count for every item shown.
1. Cc1cc(N2C(=O)C3C4C=CC(C4)C3C2=O)ccc1Br (configuration not stated)
2. CCCN1CCN(C(=O)Cn2cccc2C(=O)c2ccccc2)CC1

[42, 108]
